- System Under Test: yeast α-glucosidase (Saccharomyces cerevisiae)
Listing: pIC50 of selected compounds
Note on units: pIC50 is unitless, being -log10 of a concentration expressed in mol/L.

O=C(C=Cc1ccccc1)OCC1OC(CO)(OC2OC(CO)C(O)C(OC(=O)C=Cc3ccccc3)C2O)C(OC(=O)C=Cc2ccccc2)C1OC(=O)C=Cc1ccccc1 (centres unmarked) [CSE 9] | 5.05

### Prompt Need pIC50 of CC1(C)OCC2OC3OC4(COC(C)(C)OC3C(OC(=O)C=Cc3ccccc3)C2O1)OC(COC(=O)C=Cc1ccccc1)C(OC(=O)C=Cc1ccccc1)C4OC(=O)C=Cc1ccccc1 (centres unmarked) [CSE 5] , thanks.
### Response 5.05

====

- System Under Test: yeast α-glucosidase (Saccharomyces cerevisiae, UniProt P53341)
- Sequence (P53341 whole entry): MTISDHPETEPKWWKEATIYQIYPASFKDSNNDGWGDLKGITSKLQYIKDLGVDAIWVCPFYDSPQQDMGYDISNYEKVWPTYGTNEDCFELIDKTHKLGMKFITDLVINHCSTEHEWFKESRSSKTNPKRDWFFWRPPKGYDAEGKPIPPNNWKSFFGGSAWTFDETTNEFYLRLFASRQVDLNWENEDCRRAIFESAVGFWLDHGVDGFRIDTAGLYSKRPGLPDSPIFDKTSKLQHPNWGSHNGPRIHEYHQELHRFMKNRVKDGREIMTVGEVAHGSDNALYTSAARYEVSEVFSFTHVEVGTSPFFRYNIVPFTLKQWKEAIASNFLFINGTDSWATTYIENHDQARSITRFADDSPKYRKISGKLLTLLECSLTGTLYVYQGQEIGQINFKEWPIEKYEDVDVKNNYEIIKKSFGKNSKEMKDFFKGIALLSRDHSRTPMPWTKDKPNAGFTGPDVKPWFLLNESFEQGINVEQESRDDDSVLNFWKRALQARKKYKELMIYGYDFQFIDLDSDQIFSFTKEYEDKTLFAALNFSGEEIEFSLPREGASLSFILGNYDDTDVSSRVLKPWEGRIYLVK
- Experiment Notes: In vitro α-glucosidase inhibition assay (PNPG substrate)
- Type: biochemical
- Design: dose or concentration left out as unconfirmed
- Description: α-Glucosidase inhibition was tested according to previously reported methods with some modifications. […] Fifty microliters of yeast α-glucosidase enzyme solution (0.5 U/mL in phosphate buffer) was added to the wells. The plate was incubated at 37 °C for 15 min. […] The absorbance was then measured using a microplate reader at 405 nm. The percentage inhibition was calculated using the formula: % inhibition = ΔAbscontrol−ΔAbssample/ΔAbscontrol × 100 […]
Experimental Endpoint: inhibition
Note to self: number, then unit, no commentary.

Examples from the recorded data:
CC(=O)O[C@@H]1[C@H]2OC(C)(C)OC[C@@]3(O[C@H]2O[C@@H]2COC(C)(C)O[C@@H]12)O[C@H](COC(=O)/C=C/c1ccccc1)[C@@H](OC(=O)/C=C/c1ccccc1)[C@@H]3OC(=O)/C=C/c1ccccc1 | 46%
CC(=O)O[C@@H]1[C@H]2OC(C)(C)OC[C@@]3(O[C@H]2O[C@@H]2COC(C)(C)O[C@@H]12)O[C@H](COC(=O)/C=C/c1ccccc1)[C@@H](OC(C)=O)[C@@H]3OC(=O)/C=C/c1ccccc1 | 46%
CC1(C)OC[C@@]2(O[C@H]3O[C@@H]4COC(C)(C)O[C@H]4[C@H](O)[C@H]3O1)O[C@H](COC(=O)/C=C/c1ccccc1)[C@@H](O)[C@@H]2OC(=O)/C=C/c1ccccc1 | 35%

# context switch: different compound, same inhibition
### Prompt Which inhibition value is on record for C[C@H]1O[C@H](O[C@H]2[C@H](O)[C@@H](O)[C@@H](O[C@H]3[C@H](O)[C@@H](O)C(O)O[C@@H]3CO)O[C@@H]2CO)[C@H](O)[C@@H](O)[C@@H]1N[C@H]1C=C(CO)[C@@H](O)[C@H](O)[C@H]1O (stereo partly shown) [acarbose, reference compound] ?
### Response 27%

====

- System Under Test: yeast α-glucosidase (Saccharomyces cerevisiae)
- Experiment Notes: In vitro α-glucosidase inhibition assay (PNPG substrate)
- Assay type: biochemical
- Set-up: dose or concentration left out as unconfirmed
Listed below: inhibition values for each entry.
Please respond with the number in % and leave the unit unwritten.

Please review the entries below; each comes with its answer.
CC1(C)OCC2OC3OC4(COC(C)(C)OC3C(OC(=O)C=Cc3ccccc3)C2O1)OC(COC(=O)C=Cc1ccccc1)C(OC(=O)C=Cc1ccccc1)C4OC(=O)C=Cc1ccccc1 (stereo not shown) | 77
O=C(/C=C/c1ccccc1)OC[C@H]1O[C@@](CO)(O[C@H]2O[C@H](CO)[C@@H](O)[C@H](O)[C@H]2O)[C@@H](OC(=O)/C=C/c2ccccc2)[C@@H]1OC(=O)/C=C/c1ccccc1 | 34
CC1(C)OC[C@@]2(O[C@H]3O[C@@H]4COC(C)(C)O[C@H]4[C@H](O)[C@H]3O1)O[C@H](COC(=O)/C=C/c1ccccc1)[C@@H](OC(=O)/C=C/c1ccccc1)[C@@H]2OC(=O)/C=C/c1ccccc1 | 32

Now let's try a different one.
### Prompt Which inhibition value belongs to O=C(C=Cc1ccccc1)OCC1OC(CO)(OC2OC(CO)C(O)C(OC(=O)C=Cc3ccccc3)C2O)C(OC(=O)C=Cc2ccccc2)C1OC(=O)C=Cc1ccccc1 (stereo not shown) ?
### Response 74

====

- System Under Test: porcine pancreatic α-amylase (Sus scrofa)
- Experiment Notes: In vitro α-amylase inhibition assay (starch/DNSA)
- Format: biochemical
- Parameters: dose or concentration left out as unconfirmed
Measured inhibition values are reported for all entries that follow.
The reply should be a number in %, with the unit left off.

Solved entries (count: 3):
CC1(C)OC[C@@]2(O[C@H]3O[C@@H]4COC(C)(C)O[C@H]4[C@H](O)[C@H]3O1)O[C@H](COC(=O)/C=C/c1ccccc1)[C@@H](OC(=O)/C=C/c1ccccc1)[C@@H]2OC(=O)/C=C/c1ccccc1 | 8
O=C(C=Cc1ccccc1)OCC1OC(CO)(OC2OC(CO)C(O)C(OC(=O)C=Cc3ccccc3)C2O)C(OC(=O)C=Cc2ccccc2)C1OC(=O)C=Cc1ccccc1 (stereo not shown) | 99
CC(=O)O[C@@H]1[C@H]2OC(C)(C)OC[C@@]3(O[C@H]2O[C@@H]2COC(C)(C)O[C@@H]12)O[C@H](COC(=O)/C=C/c1ccccc1)[C@@H](OC(C)=O)[C@@H]3OC(=O)/C=C/c1ccccc1 | 14

### Prompt Can you share its inhibition? I mean this compound: O=C(/C=C/c1ccccc1)OC[C@H]1O[C@@](CO)(O[C@H]2O[C@H](CO)[C@@H](O)[C@H](O)[C@H]2O)[C@@H](OC(=O)/C=C/c2ccccc2)[C@@H]1OC(=O)/C=C/c1ccccc1
### Response 16

### Prompt Need inhibition of CC1(C)OCC2OC3OC4(COC(C)(C)OC3C(OC(=O)C=Cc3ccccc3)C2O1)OC(COC(=O)C=Cc1ccccc1)C(OC(=O)C=Cc1ccccc1)C4OC(=O)C=Cc1ccccc1 (stereo not shown) , thanks.
### Response 98

### Prompt What does the data say about its inhibition? Entry: CC(=O)O[C@@H]1[C@H]2OC(C)(C)OC[C@@]3(O[C@H]2O[C@@H]2COC(C)(C)O[C@@H]12)O[C@H](COC(=O)/C=C/c1ccccc1)[C@@H](OC(=O)/C=C/c1ccccc1)[C@@H]3OC(=O)/C=C/c1ccccc1
### Response 13

### Prompt Entry CC1(C)OC[C@@]2(O[C@H]3O[C@@H]4COC(C)(C)O[C@H]4[C@H](O)[C@H]3O1)O[C@H](COC(=O)/C=C/c1ccccc1)[C@@H](O)[C@@H]2OC(=O)/C=C/c1ccccc1 has what inhibition?
### Response 9

====

- System Under Test: porcine pancreatic α-amylase (Sus scrofa, UniProt P00690)
- Sequence (P00690 16-511): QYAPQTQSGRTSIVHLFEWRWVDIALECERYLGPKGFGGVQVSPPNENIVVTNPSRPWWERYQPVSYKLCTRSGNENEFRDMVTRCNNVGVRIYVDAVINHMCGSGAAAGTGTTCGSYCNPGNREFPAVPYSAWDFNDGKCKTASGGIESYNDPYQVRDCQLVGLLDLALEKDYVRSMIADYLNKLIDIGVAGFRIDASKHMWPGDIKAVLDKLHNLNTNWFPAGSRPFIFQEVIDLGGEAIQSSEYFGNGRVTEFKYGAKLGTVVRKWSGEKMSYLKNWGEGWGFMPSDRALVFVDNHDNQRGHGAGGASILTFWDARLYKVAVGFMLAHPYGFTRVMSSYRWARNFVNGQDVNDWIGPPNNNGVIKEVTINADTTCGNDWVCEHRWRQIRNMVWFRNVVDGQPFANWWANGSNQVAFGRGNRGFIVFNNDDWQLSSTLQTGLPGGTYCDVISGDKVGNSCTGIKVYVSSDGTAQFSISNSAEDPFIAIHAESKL
- Experiment Notes: In vitro α-amylase inhibition assay (starch/DNSA)
- Type: biochemical
- Condition: dose-response 0–25 µg/mL; mean ± SD, n = 3
Experimental Endpoint: pIC50
The meaning of pIC50 here: minus log10 of the concentration in molar units.

O=C(C=Cc1ccccc1)OCC1OC(CO)(OC2OC(CO)C(O)C(OC(=O)C=Cc3ccccc3)C2O)C(OC(=O)C=Cc2ccccc2)C1OC(=O)C=Cc1ccccc1 (centres unmarked) | 6.10

Below: the item to evaluate.
### Prompt Return reported pIC50; argument: CC1(C)OCC2OC3OC4(COC(C)(C)OC3C(OC(=O)C=Cc3ccccc3)C2O1)OC(COC(=O)C=Cc1ccccc1)C(OC(=O)C=Cc1ccccc1)C4OC(=O)C=Cc1ccccc1 (centres unmarked)
### Response 6.00
